The origin of these recorded values is patent US9663513B2.

Please respond with reported Ki for every item in the list.
target: human PDE10A2 (Homo sapiens (Human))
Sequence (Q9Y233 267-1055): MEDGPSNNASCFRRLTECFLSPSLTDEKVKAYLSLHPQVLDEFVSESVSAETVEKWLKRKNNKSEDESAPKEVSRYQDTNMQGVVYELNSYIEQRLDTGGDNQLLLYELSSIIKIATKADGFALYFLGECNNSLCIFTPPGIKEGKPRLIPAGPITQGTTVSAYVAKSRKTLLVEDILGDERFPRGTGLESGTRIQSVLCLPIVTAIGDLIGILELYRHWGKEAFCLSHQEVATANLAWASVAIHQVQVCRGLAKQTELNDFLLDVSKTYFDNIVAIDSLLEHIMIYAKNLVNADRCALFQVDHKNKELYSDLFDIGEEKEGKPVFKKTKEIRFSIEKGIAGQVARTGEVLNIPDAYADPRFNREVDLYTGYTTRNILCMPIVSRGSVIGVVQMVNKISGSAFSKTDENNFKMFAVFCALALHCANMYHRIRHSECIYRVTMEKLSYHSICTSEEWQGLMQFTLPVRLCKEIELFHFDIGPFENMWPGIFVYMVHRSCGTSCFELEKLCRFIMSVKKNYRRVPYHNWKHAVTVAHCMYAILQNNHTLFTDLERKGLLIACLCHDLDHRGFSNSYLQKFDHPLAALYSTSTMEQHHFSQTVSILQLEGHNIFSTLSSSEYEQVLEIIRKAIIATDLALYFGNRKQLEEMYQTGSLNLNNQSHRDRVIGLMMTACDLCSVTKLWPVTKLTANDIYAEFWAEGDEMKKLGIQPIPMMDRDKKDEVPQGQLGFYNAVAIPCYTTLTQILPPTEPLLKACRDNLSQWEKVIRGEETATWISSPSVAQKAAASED
Reply with just the number (in nM).

Can you share its Ki? I mean this compound: Cc1ccc([C@H]2C[C@@H]2COc2nc(C)ncc2-c2cnc(C(C)(C)O)cc2C)nc1
0.02

Query COc1ccc([C@H]2C[C@@H]2COc2nc(C)ncc2-c2cn(C)nc2C(O)C(F)(F)F)nc1 (stereo partly shown) next
0.93

Query COc1ccc([C@H]2C[C@@H]2COc2nc(C)ncc2-c2cn(C)[nH]c2=O)nc1 next
0.71

Query COc1ccc([C@H]2C[C@@H]2COc2nc(C)ncc2-c2ccc(-c3nc(C)no3)cc2)nc1 next
3.02

Query Cc1ccc([C@H]2C[C@@H]2COc2nc(C)ncc2-c2c(F)cccc2F)nc1 next
1.42

Query COc1ccc([C@H]2C[C@@H]2COc2nc(C)ncc2-c2ccc(-c3ncno3)cc2)nc1 next
0.15

Query COc1ccc([C@H]2C[C@@H]2COc2nc(C)ncc2-c2ccc(OCC3CC3)nc2)nc1 next
0.5

Query Cc1ncc(-c2cnc3ccccn23)c(OC[C@H]2C[C@@H]2c2ccc3ccccc3n2)n1 next
0.06

Query COc1ccc([C@H]2C[C@@H]2COc2nc(C)ncc2-c2ccc(C(=O)NCC(F)(F)F)nc2)nc1 next
0.67

Query Cc1ccc([C@H]2C[C@@H]2COc2nc(C)ncc2-c2ccc(C(C)O)nc2)nc1 (stereo partly shown) [Example 141] next
0.24

Query CCn1nnc(-c2ccc(-c3cnc(C)nc3OC[C@H]3C[C@@H]3c3ccc(OC)cn3)cc2)n1 next
1.42

Query COc1ccc([C@H]2C[C@@H]2COc2nc(C)ncc2-c2ccc(CO)nn2)nc1 next
11.9

Query COc1ccc([C@H]2C[C@@H]2COc2nc(C)ncc2-c2nn[nH]n2)nc1 next
9.43

Query COc1ccc([C@H]2C[C@@H]2COc2nc(C)ncc2-c2ccc(C#N)cc2)nc1 next
1.19

Query CCC(O)c1ccc(-c2cnc(C)nc2OC[C@H]2C[C@@H]2c2ccc(C)cn2)cn1 (stereo partly shown) next
0.73

Query CCOc1cccc(-c2cnc(C)nc2OC[C@H]2C[C@@H]2c2ccc3ccccc3n2)c1 (single isomer, unassigned) [Example 41, 2,2,2-trifluoroacetate] next
5.08

Query Cc1ccc([C@H]2C[C@@H]2COc2nc(C)ncc2[C@]2(F)CC[C@@H](O)CC2)nc1 next
7.85

Query COc1ccc([C@H]2C[C@@H]2COc2nc(C)ncc2-c2ccc(S(C)(=O)=O)nc2)nc1 next
2.95

Query Cc1cccc([C@H]2C[C@@H]2COc2nc(C)ncc2-c2ccc(C(C)(C)O)nc2)n1 [Example 176] next
14.8

Query Cc1ccc([C@H]2C[C@@H]2COc2nc(C)ncc2[C@H]2CC[C@@H](C(C)(C)O)CC2)nc1 next
12.6

Query Cc1ncc(-c2ccc(C(C)(C)O)nc2)c(OC[C@H]2C[C@@H]2c2ccc(C(F)(F)F)cn2)n1 next
13.5

Query Cc1ccc([C@H]2C[C@@H]2COc2nc(C)ncc2C2=CC(=O)OC2)nc1 next
13.9

Query COc1ccc([C@H]2C[C@@H]2COc2nc(C)ncc2-c2ccc([S+](C)[O-])nc2)nc1 (single isomer, unassigned) next
2.62

Query COc1ccc([C@H]2C[C@@H]2COc2nc(C)ncc2C2=CCOCC2)nc1 next
0.76

Query COc1ccc([C@H]2C[C@@H]2COc2nc(C)ncc2-c2cnnn2C(F)F)nc1 next
6.6

Query CCOC(=O)[C@H]1CC[C@@H](c2cnc(C)nc2OC[C@H]2C[C@@H]2c2ccc(OC)cn2)CC1 next
7.9

Query COc1ccc([C@H]2C[C@@H]2COc2nc(C)ncc2C2=CC(=O)CC2)nc1 next
6.28

Query Cc1ccc([C@H]2C[C@@H]2COc2nc(C)ncc2-c2ccccc2OC(F)(F)F)nc1 next
3.15

Query COc1ccc([C@H]2C[C@@H]2COc2nc(C)ncc2-c2ccc(C(=O)NCCO)cc2)nc1 next
1.06

Query COc1ccc([C@H]2C[C@@H]2COc2nc(C)ncc2-c2cc(C#N)n(C)c2)nc1 next
0.89

Query Cc1ncc([C@H]2CC[C@H](O)CC2)c(OC[C@H]2C[C@H]2c2ccc3ccccc3n2)n1 next
0.01
